- Tgt: human LAG3 expressed on cells (human) (UniProt P18627)
- Sequence (P18627 23-525): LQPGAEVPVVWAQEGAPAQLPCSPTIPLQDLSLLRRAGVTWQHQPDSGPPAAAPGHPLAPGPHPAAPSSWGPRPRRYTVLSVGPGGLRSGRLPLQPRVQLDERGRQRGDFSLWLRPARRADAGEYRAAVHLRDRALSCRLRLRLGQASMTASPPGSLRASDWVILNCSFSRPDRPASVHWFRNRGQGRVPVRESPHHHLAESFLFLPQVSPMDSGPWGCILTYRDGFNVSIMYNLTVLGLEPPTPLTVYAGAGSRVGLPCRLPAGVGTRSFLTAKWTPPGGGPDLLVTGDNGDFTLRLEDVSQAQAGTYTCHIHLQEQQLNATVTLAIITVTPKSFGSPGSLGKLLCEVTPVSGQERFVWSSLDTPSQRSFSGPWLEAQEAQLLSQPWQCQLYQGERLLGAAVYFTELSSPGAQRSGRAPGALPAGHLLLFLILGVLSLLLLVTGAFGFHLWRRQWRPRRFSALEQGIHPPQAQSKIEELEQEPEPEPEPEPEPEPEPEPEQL
- Method Summary: cell-based or functional assay
Measured Quantity: IL-2, % of BMS, at 2.222222222 ug/mL (%)

INSERT INTO assay_data (binder, measured_quantity, unit_abbreviation, value_reported) VALUES
  ('sdAb fusion 25-2015-3 (Fc fusion, not shown: a dimerising Fc or GST) QLQLVESGGGLVQAGGSLRLSCAASGSIESFSFMGWYRQAPGKQRELVAGFTGAASLSFSTYTDAVKGRFTISRDNAKNTVYLQMNSLKPEDTAVYFCNVDPWSQSWPGRYWGQGTQVTVSSGGGGSGGGGSGGGGSQLQLVESGGGLAQTGGSLRLSCAAAGFTFDDTATGWFRQAPGKNREGVACISSSDGRIHYIDSAKGRFTISKDNAKKTVYLQMDSLKPEDTAVYYCAAARKGSTDCQGAIWGSWGQGTQVIVSSEPKSCDKTHTCPPCPAPELLG', 'IL-2, % of BMS, at 2.222222222 ug/mL', '%', 96.8);
